# TEST SYSTEM: T1, β-catenin (Mus musculus, UniProt Q02248)
# T1 chain: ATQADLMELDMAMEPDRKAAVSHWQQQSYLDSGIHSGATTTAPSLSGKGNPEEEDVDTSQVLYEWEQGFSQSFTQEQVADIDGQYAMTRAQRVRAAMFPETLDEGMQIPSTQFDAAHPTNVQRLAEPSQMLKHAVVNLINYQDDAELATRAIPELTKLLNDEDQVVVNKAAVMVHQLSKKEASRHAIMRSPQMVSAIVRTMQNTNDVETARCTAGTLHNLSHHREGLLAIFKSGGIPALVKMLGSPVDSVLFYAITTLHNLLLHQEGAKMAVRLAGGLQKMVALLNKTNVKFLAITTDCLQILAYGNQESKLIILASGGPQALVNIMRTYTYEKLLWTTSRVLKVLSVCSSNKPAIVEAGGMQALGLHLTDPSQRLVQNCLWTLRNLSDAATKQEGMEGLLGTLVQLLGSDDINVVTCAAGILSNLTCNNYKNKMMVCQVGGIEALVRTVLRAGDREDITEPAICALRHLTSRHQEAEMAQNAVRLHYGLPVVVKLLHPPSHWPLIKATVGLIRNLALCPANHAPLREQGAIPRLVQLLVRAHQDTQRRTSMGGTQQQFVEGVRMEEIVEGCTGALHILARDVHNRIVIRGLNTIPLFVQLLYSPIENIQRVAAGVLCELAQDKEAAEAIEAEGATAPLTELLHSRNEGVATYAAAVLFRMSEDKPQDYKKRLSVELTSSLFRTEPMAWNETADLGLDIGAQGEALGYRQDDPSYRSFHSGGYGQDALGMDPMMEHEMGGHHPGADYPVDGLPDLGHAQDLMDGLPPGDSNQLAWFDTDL
pKd: −log10 of the molar value.
PROPERTY LABEL: pKd

Input line: Item DPTAPPYDSLLVFDYEGSGS [E-cadherin core-binding peptide core-binding region (20 aa)] : provide pKd
Output line: < 6.00
